# Test system: AGS cell strain
# Protocol: Effect on cell cycle (propidium iodide staining, FACS, sub G1)
# Format: cell-based
# Condition: mimic 10 nM, 10 uM 5-FU 24 h after transfection, then 48 hours, relative to scrambled control (=1)
Readout Name: Relative Sub G1
Respond with the number and no other words.

Example cases with answers are listed next.
Answer with the recorded Relative Sub G1 for the substance listed here: BART6-5p: EBV BART miRNA mimic, double stranded RNA; sense SEQ NO: 29, antisense SEQ NO: 30 (sense UAAGGUUGGUCCAAUCCAUAGG; antisense CCUAUGGAUUGGACCAACCUUA; chemistry not given here)
1.023

State, in one line, measured Relative Sub G1 of BART17-5p: EBV BART miRNA mimic, double stranded RNA; sense SEQ NO: 25, antisense SEQ NO: 26 (sense UAAGAGGACGCAGGCAUACAAG; antisense CUUGUAUGCCUGCGUCCUCUUA; chemistry not given here)
1.099

Tell us which Relative Sub G1 value is on record for BART19-3p: EBV BART miRNA mimic, double stranded RNA; sense SEQ NO: 71, antisense SEQ NO: 72 (sense UUUUGUUUGCUUGGGAAUGCU; antisense AGCAUUCCCAAGCAAACAAAA; chemistry not given here)
1.244

Please look at this substance and report its Relative Sub G1: BART11-3p: EBV BART miRNA mimic, double stranded RNA; probably sense SEQ NO: 63, antisense SEQ NO: 64 (printed as BART11-5p) (sense ACGCACACCAGGCUGACUGCC; antisense GGCAGUCAGCCUGGUGUGCGU; chemistry not given here)
1.128

Tell me Relative Sub G1 reported for BART12-3p: EBV BART miRNA mimic, double stranded RNA; sense SEQ NO: 67, antisense SEQ NO: 68 (sense UCCUGUGGUGUUUGGUGUGGUU; antisense AACCACACCAAACACCACAGGA; chemistry not given here)
1.317

Continuing:
Answer with the recorded Relative Sub G1 for the substance listed here: BART9-5p: EBV BART miRNA mimic, double stranded RNA; sense SEQ NO: 49, antisense SEQ NO: 50 (sense UACUGGACCCUGAAUUGGAAAC; antisense GUUUCCAAUUCAGGGUCCAGUA; chemistry not given here)
1.005
